Target: human TLR7 (Homo sapiens)
Construct: host or cells: HEK-Blue cells (HEK293-derived reporter line)
Sequence (Q9NYK1 27-1049): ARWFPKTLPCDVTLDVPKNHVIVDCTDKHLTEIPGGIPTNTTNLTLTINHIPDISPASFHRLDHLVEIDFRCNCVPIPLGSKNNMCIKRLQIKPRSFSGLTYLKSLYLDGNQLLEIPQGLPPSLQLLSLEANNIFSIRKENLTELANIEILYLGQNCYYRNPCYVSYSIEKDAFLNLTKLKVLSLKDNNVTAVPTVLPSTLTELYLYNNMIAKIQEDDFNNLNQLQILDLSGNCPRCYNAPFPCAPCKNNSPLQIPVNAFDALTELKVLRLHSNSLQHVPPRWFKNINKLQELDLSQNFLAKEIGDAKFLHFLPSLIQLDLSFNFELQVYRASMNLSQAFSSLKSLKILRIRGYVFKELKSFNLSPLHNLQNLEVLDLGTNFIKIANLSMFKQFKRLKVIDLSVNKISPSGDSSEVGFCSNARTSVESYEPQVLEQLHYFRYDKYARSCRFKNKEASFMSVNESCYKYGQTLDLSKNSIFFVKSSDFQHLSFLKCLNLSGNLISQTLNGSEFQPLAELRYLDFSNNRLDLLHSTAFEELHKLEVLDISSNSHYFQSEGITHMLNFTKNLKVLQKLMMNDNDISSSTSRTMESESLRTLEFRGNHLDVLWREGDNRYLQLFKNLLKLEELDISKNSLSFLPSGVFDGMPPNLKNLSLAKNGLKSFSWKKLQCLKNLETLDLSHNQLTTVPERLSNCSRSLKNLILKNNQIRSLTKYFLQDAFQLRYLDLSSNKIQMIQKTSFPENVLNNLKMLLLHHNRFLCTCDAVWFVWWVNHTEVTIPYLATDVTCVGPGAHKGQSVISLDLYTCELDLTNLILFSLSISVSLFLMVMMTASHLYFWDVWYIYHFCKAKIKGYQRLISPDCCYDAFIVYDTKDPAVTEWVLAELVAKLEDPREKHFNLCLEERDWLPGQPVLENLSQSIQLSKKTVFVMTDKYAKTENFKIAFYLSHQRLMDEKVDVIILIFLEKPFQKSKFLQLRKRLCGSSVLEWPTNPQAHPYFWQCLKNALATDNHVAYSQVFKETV
Assay: TLR7 inhibition reporter assay (HEK-Blue cells, SEAP reporter, gardiquimod stimulation)
Assay type: cell-based
Conditions: HEK-Blue cells overexpressing human TLR7, SEAP reporter, gardiquimod 7.5 μM
measured.metric: IC50

Completed entries (count: 4):
[[record]]
structure = "Cc1c(-c2ccnc3[nH]cc(C(C)C)c23)[nH]c2ccc(C3CCNCC3)cc12"
tested_system = "human TLR7 (Homo sapiens)"
recorded_measurement = "1 to 50 µM"

[[record]]
structure = "CC(C)c1c(-c2cc(CO)c3nnnn3c2)[nH]c2ccc(C3CCN(C4COC4)CC3)cc12"
tested_system = "human TLR7 (Homo sapiens)"
recorded_measurement = "< 0.1 µM"

[[record]]
structure = "Cc1cc2cc(-c3[nH]c4ccc(C5CCN(CC(C)(C)O)CC5)cc4c3C(C)C)cc(CC(C)C)n2n1"
tested_system = "human TLR7 (Homo sapiens)"
recorded_measurement = "> 3.13 µM"

[[record]]
structure = "CC(C)c1c(-c2cnc3c(cnn3C)c2)[nH]c2ccc(C3CCN(CC(=O)N(C)C)CC3)cc12"
tested_system = "human TLR7 (Homo sapiens)"
recorded_measurement = "< 0.1 µM"


Pending compound:
Reported IC50 ( CNCC(=O)N1CCC(c2ccc3[nH]c(-c4cc(F)c5nccn5c4)c(CC(F)F)c3c2)CC1 ) = < 0.1 µM
